Experiment: Solubility in toluene, xylene and chloroform at 25° C.
Format: physicochemical
Conditions: chloroform, organic solvent or mixture, in chloroform, read-out: Solubility Chloroform
assay_metric: solubility (mg/mL)

| compound | reading |
| --- | --- |
| CC1(C)c2ccccc2N(c2nc(-c3ccccc3)nc(-c3ccc4c(c3)-c3ccccc3C43c4ccccc4-c4ccccc43)n2)c2cc3c(cc21)c1ccccc1n3-c1ccccc1 [Example 5] | 445 |
| CC1(C)c2ccccc2-c2ccc3c4ccccc4n(-c4nc(-c5ccccc5)nc(-c5cccc6c5-c5ccccc5C65c6ccccc6-c6ccccc65)n4)c3c21 [Example 8] | 510 |
| c1ccc(-c2nc(-c3cccc4c3-c3ccccc3C43c4ccccc4-c4ccccc43)nc(-n3c4ccccc4c4ccc5c6ccccc6n(-c6ccccc6)c5c43)n2)cc1 [Example 1] | 410 |
| CC1(C)c2ccccc2N(c2ccccc2)c2cc3c(cc21)N(c1nc(-c2ccccc2)cc(-c2cccc4c2-c2ccccc2C42c4ccccc4-c4ccccc42)n1)c1ccccc1C3(C)C [Example 7] | 473 |
| c1ccc(-c2nc(-c3ccc4c(c3)C3(c5ccccc5-4)c4ccccc4N(c4ccccc4)c4ccccc43)nc(-n3c4ccccc4c4cc5c6ccccc6n(-c6ccccc6)c5cc43)n2)cc1 [Example 10] | 344 |
| c1ccc(-c2nc(-c3ccc4c(c3)C3(c5ccccc5Sc5ccccc53)c3ccccc3-4)nc(-n3c4ccccc4c4ccc5c6ccccc6n(-c6ccccc6)c5c43)n2)cc1 [Example 9] | 434 |
| c1ccc(-c2cc(-c3ccc4c(c3)-c3ccccc3C43c4ccccc4-c4ccccc43)nc(N3c4ccccc4Oc4ccc5c(c43)c3ccccc3n5-c3ccccc3)n2)cc1 [Example 4] | 430 |
| c1ccc(-c2nc(-c3cccc4c3-c3ccccc3C43c4ccccc4-c4ccccc43)nc(-n3c4ccccc4c4cc5c6ccccc6n(-c6ccccc6)c5cc43)n2)cc1 [Example 2] | 294 |
| [2H]c1cc2c3ccccc3n(-c3nc(-c4ccccc4)cc(-c4ccc5c(c4)-c4ccccc4C54c5ccccc5-c5ccccc54)n3)c2c2c3ccccc3n(-c3ccccc3)c12 [Example 11] | 374 |

----------
Assay: Solubility in toluene, xylene and chloroform at 25° C.
Format: physicochemical
Conditions: chloroform, organic solvent or mixture, in chloroform, read-out: Solubility Chloroform
assay_metric: solubility (mg/mL)

| compound | result_unit | solubility |
| --- | --- | --- |
| CC1(C)c2ccccc2N(c2nc(-c3ccccc3)nc(-c3cccc4c3-c3ccccc3C43c4ccccc4-c4ccccc43)n2)c2ccc3c4ccccc4n(-c4ccccc4)c3c21 | mg/mL | 460 |

P: c1ccc(-c2nc(-c3cccc4c3-c3ccccc3C43c4ccccc4-c4ccccc43)nc(-n3c4ccccc4c4c5c6ccccc6n(-c6ccccc6)c5ccc43)n2)cc1
Q: c1ccc2c(c1)c1ccccc1n2-c1ccc(-c2ccc(-n3c4ccccc4c4ccccc43)cc2)cc1 [CBP, 4,4′-bis(9H-carbazol-9-yl)biphenyl, reference compound]
Lookup: Please state the entry with greater solubility among P and Q . Returns: label corresponding to the selected item.
Found: P

----------
Experiment: Solubility in toluene, xylene and chloroform at 25° C.
Assay type: physicochemical
Settings: xylene, organic solvent or mixture, in xylene, read-out: Solubility Xylene
assay_metric: solubility (mg/mL)

| compound | solubility / mg/mL |
| --- | --- |
| CC1(C)c2ccccc2N(c2nc(-c3ccccc3)nc(-c3cccc4c3-c3ccccc3C43c4ccccc4-c4ccccc43)n2)c2ccc3c4ccccc4n(-c4ccccc4)c3c21 | 392 |

P: CC1(C)c2ccccc2N(c2nc(-c3ccccc3)nc(-c3ccc4c(c3)-c3ccccc3C43c4ccccc4-c4ccccc43)n2)c2cc3c(cc21)c1ccccc1n3-c1ccccc1
Q: c1ccc2c(c1)c1ccccc1n2-c1ccc(-c2ccc(-n3c4ccccc4c4ccccc43)cc2)cc1 [CBP, 4,4′-bis(9H-carbazol-9-yl)biphenyl, reference compound]
Lookup: Compare P and Q and name the one whose reported solubility is smaller. Mark your answer with the label of the selected entry.
Found: Q
(Q: 153 mg/mL, P: 376 mg/mL)

1: CC1(C)c2ccccc2N(c2ccccc2)c2cc3c(cc21)N(c1nc(-c2ccccc2)cc(-c2cccc4c2-c2ccccc2C42c4ccccc4-c4ccccc42)n1)c1ccccc1C3(C)C
2: c1ccc(-c2nc(-c3cccc4c3-c3ccccc3C43c4ccccc4-c4ccccc43)nc(-n3c4ccccc4c4cc5c6ccccc6n(-c6ccccc6)c5cc43)n2)cc1
Lookup: Could you determine which record has the numerically smaller solubility? Candidates: 1 and 2 Lab note: record the label of whichever item you select.
Found: 2
(2: 256 mg/mL, 1: 405 mg/mL)
